Values compiled from patent US20120129766A1.

- Assayed System: T1, human β-klotho (human, UniProt Q86Z14 1-1044)
- T1 sequence (looked up): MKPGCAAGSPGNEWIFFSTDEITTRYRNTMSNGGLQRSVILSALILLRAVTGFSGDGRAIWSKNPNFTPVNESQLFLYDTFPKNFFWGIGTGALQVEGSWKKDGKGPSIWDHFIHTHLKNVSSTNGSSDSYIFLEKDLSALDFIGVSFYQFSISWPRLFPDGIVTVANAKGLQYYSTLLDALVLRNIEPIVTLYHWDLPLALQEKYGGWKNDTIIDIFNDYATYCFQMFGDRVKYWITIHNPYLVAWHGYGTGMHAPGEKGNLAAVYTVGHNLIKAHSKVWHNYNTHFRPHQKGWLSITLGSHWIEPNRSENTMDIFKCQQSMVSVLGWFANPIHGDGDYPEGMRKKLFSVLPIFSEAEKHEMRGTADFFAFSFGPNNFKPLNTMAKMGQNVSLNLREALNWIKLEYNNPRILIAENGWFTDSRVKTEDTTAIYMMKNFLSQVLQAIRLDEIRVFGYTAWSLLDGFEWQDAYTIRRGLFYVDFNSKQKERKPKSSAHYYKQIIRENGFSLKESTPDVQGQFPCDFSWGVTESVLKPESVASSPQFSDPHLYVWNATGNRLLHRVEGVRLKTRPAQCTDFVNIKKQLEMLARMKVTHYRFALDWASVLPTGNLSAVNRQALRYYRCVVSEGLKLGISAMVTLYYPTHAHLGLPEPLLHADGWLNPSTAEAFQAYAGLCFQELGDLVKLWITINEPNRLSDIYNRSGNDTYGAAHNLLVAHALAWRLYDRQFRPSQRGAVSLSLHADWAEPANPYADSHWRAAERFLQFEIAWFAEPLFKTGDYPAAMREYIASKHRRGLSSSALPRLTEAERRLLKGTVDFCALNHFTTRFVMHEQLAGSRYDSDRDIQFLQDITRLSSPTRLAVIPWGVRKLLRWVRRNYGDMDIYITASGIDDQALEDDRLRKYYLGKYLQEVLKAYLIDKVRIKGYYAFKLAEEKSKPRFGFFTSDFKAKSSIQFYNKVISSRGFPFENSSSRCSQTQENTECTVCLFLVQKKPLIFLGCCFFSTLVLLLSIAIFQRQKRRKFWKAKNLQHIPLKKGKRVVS
- Method Summary: cell-based or functional assay
Parameter Fold-WT (EC50 of variant / EC50 of FGF21-WT): see the listing below.
Write down the numeric answer in fold and omit the unit.

hFGF21(33-209)-WT-R154C (ligand) DSSPLLQFGGQVRQRYLYTDDAQQTEAHLEIREDGTVGGAADQSPESLLQLKALKPGVIQILGVKTSRFLCQRPDGALYGSLHFDPEACSFRELLLEDGYNVYQSEAHGLPLHLPGNKSPHCDPAPRGPARFLPLPGLPPALPEPPGILAPQPPDVGSSDPLSMVGPSQGRSPSYAS ... 1.3

Would you mind telling me what Fold-WT (EC50 of variant / EC50 of FGF21-WT) value was observed for hFGF21(33-209)-V63 (ligand) DSSPLLQFGGQVRQRYLYTDDACQTEAHLEIREDGTVGGAAHQSPESLLQLKALKPGVIQILGVKTSRFLCQRPDGALYGSLHFDPEACSFRELLLENGYNVYQSETHGLPLHLPCNRSPHRDPASRGPARFLPLPGLPPAPPEPPGILAPQPPDVGSSDPLAMVGPSQARSPSYAS ?
3.7

Cool, now hFGF21(33-209)-V80 (ligand) DSSPLLQFGGQVRQRYLYTDDAQQTEAHLEIREDGTVGGAADQSPESLLELKALKPGVIQILGVKTSRFLCQKPDGTLYGSLHFDPEACSFRELLLEDGYNVYQSEAHGLPLHLPGNRSPHCDPAPQGPARFLPLPGLPPALPEPPGILAPQPPDVGSSDPLAMVGPSQARSPSYAS
0.4
